- System: Saccharomyces cerevisiae
- assay-info: protein stability index of tFT-peptide fusion (C-terminal peptide) (PSI (0-1 scale)); higher = more stable (slower turnover)
- experimental-parameters: genetic background: wild type; temperature: 30 C
Lab note: anything with protein stability index at or over 0.7 counts as TRUE; the rest go in FALSE.

Completed entries (count: 6):
{"sequence-data": "NHIASQASRRGR", "class-name": "FALSE"}
{"sequence-data": "APPPAPPPPPQT", "class-name": "FALSE"}
{"sequence-data": "IMTNGADRERYR", "class-name": "TRUE"}
{"sequence-data": "FFLFLFFFLRGS", "class-name": "FALSE"}
{"sequence-data": "VVGVAVSRTFAR", "class-name": "FALSE"}
{"sequence-data": "SFVLKAFLTRAV", "class-name": "TRUE"}

Attention now shifts to the item below.
Quick check, protein stability index >= 0.7? RRPGGQGHPNAG
TRUE

---

- System: Saccharomyces cerevisiae
- assay-info: protein stability index of tFT-peptide fusion (C-terminal peptide) (PSI (0-1 scale)); higher = more stable (slower turnover)
- experimental-parameters: genetic background: das1 deletion; temperature: 37 C
Returns one of Condition met or Condition not met; Condition met when protein stability index is >= 0.7.

{"sequence-data": "IERLRLRTRIIC", "class-name": "Condition not met"}
{"sequence-data": "VLLVSVFVATLL", "class-name": "Condition not met"}
{"sequence-data": "NKYSMQNVLKSF", "class-name": "Condition met"}
{"sequence-data": "YVFSPLSCWASV", "class-name": "Condition met"}
{"sequence-data": "GFLRTVHFLLLG", "class-name": "Condition met"}
{"sequence-data": "DLRFAWLLSCFS", "class-name": "Condition not met"}
{"sequence-data": "VCLWAIHLSGCW", "class-name": "Condition not met"}
{"sequence-data": "PRLRPQTVAFLS", "class-name": "Condition met"}

protein stability index >= 0.7 for ACGGGSNVHRAG ?
Condition met

Hi team, for GKWFSWNAIWIR , is the recorded protein stability index at or above 0.7?
Condition not met

Given the entry FWESHVLPYRLL , answer whether its protein stability index meets or surpasses 0.7.
Condition met

Decide: protein stability index of RTWLHLVVPVWG >= 0.7?
Condition not met

---

- Tested on: Saccharomyces cerevisiae
- assay-info: protein stability index of tFT-peptide fusion (C-terminal peptide) (PSI (0-1 scale)); higher = more stable (slower turnover)
- experimental-parameters: genetic background: doa10 deletion; temperature: 30 C
// protein stability index lookup, one value per entry
Respond numerically, and do not add a unit to the figure.

Worked examples, 6 sequences total:
{"sequence-data": "GFNIFFFFFFFV", "protein stability index": 0.281}
{"sequence-data": "QITIYPIPLARF", "protein stability index": 0.808}
{"sequence-data": "VLVVASLRFSFF", "protein stability index": 0.173}
{"sequence-data": "RNKIWCTVIMRL", "protein stability index": 0.229}
{"sequence-data": "RHRGHVRLALLN", "protein stability index": 0.233}
{"sequence-data": "VRLHIAMWLRRC", "protein stability index": 0.138}

Look at this sequence and give its reported protein stability index. ILCVEFFVSVSV
0.136

Can you share its protein stability index? I mean this sequence: IERGLMLTLCVH
0.115

Reported protein stability index, sequence LRVPCPPCCVFV : ____
0.33

Quick check: protein stability index of LCSVWVGIVLLC ?
0.0996

Consider the sequence PALPTPPVSPSP and give its measured protein stability index.
0.243

Tell me the measured protein stability index of FLPFRVFNFSLV , please.
0.22

Please give the measured protein stability index for this sequence: IFLLLRRIIALS
0.0418

Would you mind telling me what protein stability index value was observed for CMILVACFYLPS ?
0.248

Suppose we examine the sequence FVYFLLVVCFAF ; what protein stability index value has been reported?
0.157

---

- System: Saccharomyces cerevisiae
- assay-info: protein stability index of tFT-peptide fusion (C-terminal peptide) (PSI (0-1 scale)); higher = more stable (slower turnover)
- experimental-parameters: genetic background: wild type; temperature: 30 C
This listing pairs sequences with measured protein stability index.
Answer with a number only.

I'd like to know its protein stability index. The sequence in question is TDDNNIQTILLK [YIG1 C-terminal 12 aa]
0.704

Which protein stability index value is on record for RKFFSMRSLNSR [CHL1 C-terminal 12 aa] ?
0.659

State the recorded protein stability index for this entry: LLCSDLVNGLMQ [SEC21 C-terminal 12 aa]
0.707

Reported protein stability index for NEQVKKFFLNNV [NAS6 C-terminal 12 aa] : what is it?
0.714

So what's the measured protein stability index for this one? PLGEKFLNISNS [TEN1 C-terminal 12 aa]
0.694

Which protein stability index value belongs to EPEAEQAVEDTA [HSP30 C-terminal 12 aa] ?
0.659

Fill blank: measured protein stability index of the sequence IRDILKLGHPTR [GYP8 C-terminal 12 aa] is ____.
0.666

Look up protein stability index: GINLNISYSSGK [ULI1 C-terminal 12 aa]
0.681

Suppose we examine the sequence NEQEINKIFEPE [HXT14 C-terminal 12 aa] ; what protein stability index value has been reported?
0.743

Fill in: protein stability index of TLVFDVELLKVN [FPR1 C-terminal 12 aa] is ___
0.251

// lookup protein stability index for QTTRMLNDLIVS [MGA2 C-terminal 12 aa]
0.667

Reported protein stability index, sequence IKQRELNAADKC [MAL11 C-terminal 12 aa] : ____
0.674

Record request: protein stability index value, item LHTLYLRPASAI [SSN8 C-terminal 12 aa]
0.669

---

- Test system: Saccharomyces cerevisiae
- assay-info: protein stability index of tFT-peptide fusion (C-terminal peptide) (PSI (0-1 scale)); higher = more stable (slower turnover)
- experimental-parameters: genetic background: wild type; temperature: 30 C
quantity-measured: protein stability index

# annotated cases, reported protein stability index shown
{"sequence-data": "VAFVVALSLIFL", "protein stability index": 0.386}
{"sequence-data": "DRSRWMVVRGGG", "protein stability index": 0.648}

Quick one: protein stability index for SSFPPAPHAPHD ?
0.739

---

- System: Saccharomyces cerevisiae
- assay-info: protein stability index of tFT-peptide fusion (C-terminal peptide) (PSI (0-1 scale)); higher = more stable (slower turnover)
- experimental-parameters: genetic background: wild type; temperature: 30 C
Each entry gets N if its protein stability index stays under 0.7, and Y if its protein stability index is 0.7 or above.

{"sequence-data": "YGKELRRCKWVF", "class-name": "N"}
{"sequence-data": "ITNEQEMKRYDV", "class-name": "N"}
{"sequence-data": "DCWAGWGLCGGG", "class-name": "Y"}

Check the entry IPSKHKPSRIPI : does protein stability index equal or exceed 0.7?
N

Check if protein stability index >= 0.7 (inclusive). Item: FLSFARSSCLWF
Y

Check this sequence for protein stability index at or above 0.7: KKKKKKKKHEQK
N

---

- System: Saccharomyces cerevisiae
- assay-info: protein stability index of tFT-peptide fusion (C-terminal peptide) (PSI (0-1 scale)); higher = more stable (slower turnover)
- experimental-parameters: genetic background: wild type; temperature: 30 C
quantity-measured: protein stability index
Form: value (number only, do not type unit).

{"sequence-data": "EDRTQEIQNIHD", "protein stability index": 0.686}

Here's the next entry for you.
Need protein stability index of PPPLPPLPPPTL , thanks.
0.698

---

- Test system: Saccharomyces cerevisiae
- assay-info: protein stability index of tFT-peptide fusion (C-terminal peptide) (PSI (0-1 scale)); higher = more stable (slower turnover)
- experimental-parameters: genetic background: wild type; temperature: 30 C
quantity-measured: protein stability index
Just the number, please, no unit after it.

Check out these entries, answers already filled in.
{"sequence-data": "QRIHQTLEVPNL [FAR1 C-terminal 12 aa]", "tested-on": "Saccharomyces cerevisiae", "protein stability index": 0.692}
{"sequence-data": "LNKKREKKDETE [CSM1 C-terminal 12 aa]", "tested-on": "Saccharomyces cerevisiae", "protein stability index": 0.718}
{"sequence-data": "RLDKATKALEGF [NBA1 C-terminal 12 aa]", "tested-on": "Saccharomyces cerevisiae", "protein stability index": 0.702}
{"sequence-data": "TLKSTSSTNSPD [SMP1 C-terminal 12 aa]", "tested-on": "Saccharomyces cerevisiae", "protein stability index": 0.684}
{"sequence-data": "EAGDSDILTTLA [RPL30 C-terminal 12 aa]", "tested-on": "Saccharomyces cerevisiae", "protein stability index": 0.687}
{"sequence-data": "DSFIPLQPKKKI [YML037C C-terminal 12 aa]", "tested-on": "Saccharomyces cerevisiae", "protein stability index": 0.684}
{"sequence-data": "NDEEKQALAEKA [YLR297W C-terminal 12 aa]", "tested-on": "Saccharomyces cerevisiae", "protein stability index": 0.683}
{"sequence-data": "VDAKIKKQMNRH [YJR124C C-terminal 12 aa]", "tested-on": "Saccharomyces cerevisiae", "protein stability index": 0.682}
{"sequence-data": "EELQGNARALNN [SNN1 C-terminal 12 aa]", "tested-on": "Saccharomyces cerevisiae", "protein stability index": 0.69}
{"sequence-data": "KHKSSSYANRDS [DUS3 C-terminal 12 aa]", "tested-on": "Saccharomyces cerevisiae", "protein stability index": 0.693}

What value of protein stability index has been reported for the following sequence? LNNIKTIIEGPE [XYL2 C-terminal 12 aa]
0.716

Any idea what its protein stability index is? The sequence is KPIETVFDEETV [YIP3 C-terminal 12 aa]
0.72

Need protein stability index, item GESSINSSTRHA [CTK2 C-terminal 12 aa]
0.685

Reported protein stability index, sequence QLQMILFGKKFK [PET9 C-terminal 12 aa] : ____
0.701

Please report the recorded protein stability index for HIDIPDFSKWDV [SUL1 C-terminal 12 aa] .
0.718

Bench note: what protein stability index did NRRSDKNLPDAT [STE12 C-terminal 12 aa] show?
0.694

Bench note: what protein stability index did RKRLRTLDNWYR [RNH201 C-terminal 12 aa] show?
0.717

Returns the measured protein stability index for the input sequence. Input: DQLEDTSSHDEL [MPD2 C-terminal 12 aa]
0.7

Look up protein stability index: QEANDDLMIDVN [ENP1 C-terminal 12 aa]
0.699

Sample LLLGTVSATNAI [YPL062W C-terminal 12 aa] — what was its protein stability index?
0.706

Using the record for GVGRIITQPQRY [HUA1 C-terminal 12 aa] , report its protein stability index.
0.701
